# experiment_summary: reducers of endogenous Her2 protein level, primary screen, SKBR3 breast tumor cells, AlphaScreen, ATP viability (AID 461);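 also: percent of carrier control wells set as 100% viability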
# stated_conditions: 18-24 h, measured here: SKBR3 viability, ATP luminescence, at 10 µM

# compound, viability (%)
records = [
    ("CCOC(=O)c1[nH]c(C)c(C(=O)NCC2CCCO2)c1C (stereo not drawn)", 99),
    ("O=C(NCc1ccco1)c1cc2n(n1)C(C(F)(F)F)CC(c1ccc(F)cc1)N2 (stereo not drawn)", 120),
    ("CC1(C)Cc2c(sc3ncnc(N)c23)CO1", 116),
    ("CC(NC(=O)CSc1n[nH]c(=O)n1C1CC1)C12CC3CC(CC(C3)C1)C2 (stereo not drawn)", 91.5),
    ("CCOC(=O)CSc1cn2c(n1)CCC2", 99.5),
    ("COCCOc1nc2ccccc2nc1C", 126),
    ("N#CC1(c2ccccc2)CCC(=NO)CC1 (stereo not drawn)", 106),
    ("COc1cc(C)c(N)cc1C(C)C", 103),
    ("CCCCn1c(=O)[nH]c(=O)c2c1nc(-c1ccncc1)n2CCOC", 108),
    ("Cc1cccn2c(=O)c3cc(C#N)c(=O)n(CCCN4CCOCC4)c3nc12", 88.5),
    ("CC(C)Cn1c(CN2CCN(c3ccccc3F)CC2)nc2c1c(=O)[nH]c(=O)n2C", 93),
    ("CC(=O)OC1c2ccccc2C(=O)N1c1ccccc1C (stereo not drawn)", 100),
    ("COc1ccccc1OCCCCNCCO", 95.5),
    ("Cc1ccc(OCCC(=O)OCC(=O)C(C)(C)C)cc1", 81.5),
    ("Cc1ccc(S(=O)(=O)N(CC(=O)N2CCC(C(N)=O)CC2)c2cccc(C(F)(F)F)c2)cc1", 99.5),
    ("COc1cc(SC)ccc1C(=O)Nc1ccon1", 98.5),
    ("COc1ccc(C(=O)NCCCCCC(=O)O)cc1OC", 125),
    ("COc1ccc(S(=O)(=O)N(C)CC(=O)N2CCCCC2)cc1Cl", 80),
    ("Cc1nc(CNS(=O)(=O)c2ccc3c(c2)OCCO3)cs1", 96),
    ("O=c1oc2ccccc2c2nccnc12", 93.5),
    ("COc1cc(C)nc(OCCNC(=O)COc2ccc(Cl)cc2C)n1", 96.5),
    ("COc1ccc(-c2nnc(-c3cccs3)o2)cc1OC", 75),
    ("CCOC(=O)c1nnn(CC(=O)Nc2cccc(OC)c2)c1C(=O)OCC", 92.5),
    ("CCOc1ccc(Cc2nn[nH]n2)cc1", 86.5),
    ("COc1cc(C2=NOC(C(=O)NCc3ccc(F)cc3)C2)cc(OC)c1OC (stereo not drawn)", 84),
    ("Cc1ccccc1N1OC2C(=O)N(c3ccc(F)cc3)C(=O)C2C1c1ccccn1 (stereo not drawn)", 130),
    ("Cc1cc2c(=O)n(CC(=O)N3CCN(c4ccccc4)CC3)cnc2s1", 92),
    ("CCN(CC)C(=O)CN(c1cc(Cl)ccc1OC)S(C)(=O)=O", 95.5),
    ("CN(Cc1ccccc1)Cc1c[nH]c2ccccc12", 87),
    ("O=C(O)C1C2CCC(O2)C1C(=O)NCCC1=CCCCC1 (stereo not drawn)", 78.5),
    ("N#CC1=C(N)SC(N)=C(C#N)C1c1ccc(C(F)(F)F)cc1", 90),
    ("COc1ccc(OC)c(-c2nnc(SCC(=O)NC3CCCCC3)o2)c1", 93.5),
    ("CC(NC(=O)Cc1cccs1)c1ccc2c(c1)OCO2 (stereo not drawn)", 125),
    ("CC1CN(C(=O)c2scc3c2OCCO3)CC(C)O1 (stereo not drawn)", 102),
    ("Cc1ccccc1N1C(N)=NC(N)=NC1(C)C", 107),
    ("Cc1cc(C)c2c(n1)sc1c(N3CCOCC3)ncnc12", 91),
    ("CCOc1cc(-c2nc(-c3ccccc3OC)no2)cc(OCC)c1OCC", 90),
    ("CC1(C)CNC(=O)c2sc(N3CCOCC3)nc2C1", 114),
    ("CN(Cc1ccco1)C(=O)Cn1c(=O)oc2cc(S(=O)(=O)NCc3ccccc3)ccc21", 92),
    ("Cn1c(=O)c2c(nc(SCC(=O)O)n2Cc2cccc(C(F)(F)F)c2)n(C)c1=O", 97.5),
    ("Cc1c(C(=O)O)oc2ccc(S(=O)(=O)NCc3ccccc3)cc12", 105),
    ("CCN1CCN(C(=O)c2ccc3c(=O)n(C4CCCC4)c(=S)[nH]c3c2)CC1", 85.5),
    ("CCN(CC)C(=O)c1sc(NC(=O)c2ccco2)c(C#N)c1C", 99.5),
    ("CCSc1nnc(NC(=O)CSc2ncccn2)s1", 97.5),
    ("CN(C)c1nc(Nc2ccc(Cl)cc2)nc(OCC#N)n1", 105),
    ("CCOC(=O)CSc1nnc(-c2ccccc2OC)o1", 116),
    ("CCCCn1c(SCC(=O)Nc2cc(C)on2)nnc1-c1cccnc1", 96.5),
    ("CCN(CCCNC(=O)C1CCCN(S(=O)(=O)c2cnc[nH]2)C1)c1ccccc1 (stereo not drawn)", 94),
]

###

// values below are reported differential viability (reversal)
# experiment_summary: reversal of MRP1-mediated doxorubicin resistance, pilot screen, H69AR cells, doxorubicin co-treatment (AID 601)
# stated_conditions: H69AR cells + 2 uM doxorubicin, CellTiter-Glo, 72 h; at 10 µM; stronger effect = higher value

# compound, units_symbol, differential viability (reversal)
records = [
    ("CCOC(=O)CSc1nnc(-c2ccccc2OC)o1", "%", -11),
    ("CCN1CCN(C(=O)c2ccc3c(=O)n(CCC4=CCCCC4)c(=O)[nH]c3c2)CC1", "%", 16.7),
    ("COc1ccc(Cn2nnnc2C(c2ccccc2OC)N2CCC(C(N)=O)CC2)cc1 (stereo unspecified)", "%", 1.34),
    ("COC(=O)c1cc2oc(C)cc2n1CC(=O)N(C)c1ccccc1", "%", 7.45),
    ("Cc1ccc(CCNC(=O)C2CCCN(S(=O)(=O)c3cnc[nH]3)C2)cc1 (stereo unspecified)", "%", 6.71),
    ("Cc1cc(NC(=O)CSc2nc3ccsc3c(=O)n2NC(=O)c2ccccc2)no1", "%", 12),
]

###

# experiment_summary: reducers of endogenous Her2 protein level, primary screen, SKBR3 breast tumor cells, AlphaScreen, ATP viability (AID 461);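 also: percent of carrier control wells set as 100% viability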
# stated_conditions: 18-24 h, measured here: SKBR3 viability, ATP luminescence, at 10 µM

# compound, viability (%)
data = [
    ("CC(Sc1nc(-c2ccccc2)cc(C(F)(F)F)n1)C(=O)N1CCC(C(N)=O)CC1 (centres undefined)", 100),
    ("Cc1ccc2[nH]c3c(N4CCOCC4)ncnc3c2c1", 116),
    ("CCOC(=O)CN1C(=O)C2(OCCCO2)c2ccccc21", 99),
    ("O=S(=O)(c1ccc2ccccc2c1)N1CCCCC1", 102),
    ("CC(=O)N1CCN(C(C)=O)C1c1ccccc1", 93.5),
    ("CC(O)c1c(OCc2ccccc2)ncnc1OCc1ccccc1 (centres undefined)", 83.5),
    ("COc1ccc(CN(Cc2nc3ccccc3c(=O)[nH]2)C(=O)NC2CCCCC2)cc1", 95.5),
    ("CC(=O)Nc1ccc(NS(=O)(=O)C(F)(F)F)cc1", 82.5),
    ("Cc1ccc(OC(=O)CCC(=O)OCCCC(F)(F)C(F)(F)F)cc1", 102),
    ("CC(C)COC(=O)C1[C@H]2C(=O)N(Cc3cccs3)C[C@]23C=C[C@H]1O3 (some centres undefined)", 102),
    ("CC(=O)Nc1ccc(S(=O)(=O)NCC2CCC(C(=O)NCCCN3CCCC3=O)CC2)cc1 (centres undefined)", 107),
    ("Cc1ccc(/C(O)=C2/C(=O)C(=O)N(Cc3ccco3)C2c2cccs2)cc1 (centres undefined)", 103),
    ("COc1ccccc1-c1cn[nH]c(=S)n1", 101),
    ("N#Cc1c(NC(=O)CSc2nc(N)cc(=O)[nH]2)sc2c1CCCCCC2", 104),
    ("CC1CCCC(C(=O)OCc2ccccc2)N1 (centres undefined)", 119),
    ("COc1ccc(S(=O)(=O)N(C)c2ccc(C(=O)N3CCOCC3)cc2)cc1", 79.5),
    ("CN(c1ccccc1C(N)=O)S(=O)(=O)c1ccccc1", 105),
    ("CCOc1ccccc1-n1c(SCC(=O)NCc2ccco2)nnc1-c1ccncc1", 87),
    ("CC(C)CCNC(=O)C(c1cccs1)N(CC1CCCO1)C(=O)Cn1nnc2ccccc21 (centres undefined)", 116),
    ("COC(=O)c1cnc2c(C(F)(F)F)cccc2c1OC", 104),
    ("Cc1nc(SCC(=O)Nc2ccccc2C(F)(F)F)c2c(=O)n(C)c(=O)n(C)c2n1", 87),
    ("COc1ccc(-c2nnc3ccc(SC(C(C)=O)C(C)=O)nn23)cc1OC", 90),
    ("CCc1nc(N)c(C#N)c(-c2ccc(OC)c(OC)c2)c1C", 98.5),
    ("N=c1c(C(=O)NCc2ccc3c(c2)OCO3)cc2c(=O)n3ccccc3nc2n1Cc1cccnc1", 73.5),
    ("COc1ccc2cc(CN(Cc3ccco3)C(c3nnnn3C3CCCCC3)C(C)C)c(=O)[nH]c2c1 (centres undefined)", 100),
    ("Cc1cc(Cl)cc2c1NC(=O)[C@]21[C@@H]2C(=O)N(Cc3ccccc3)C(=O)[C@@H]2[C@@H]2CCCN21", 100),
    ("CCOC(=O)Cc1nn2c(=O)cc(C)nc2s1", 116),
    ("C=CCSc1nc(N)c(C(=O)Nc2ccccc2C)cc1C(N)=O", 93),
    ("CSc1nnc2n(CCc3ccccc3)c(=O)c3c4c(sc3n12)CCCC4", 104),
    ("Cc1cc(NC(=O)NC(=O)c2cccc(OC(F)(F)C(F)F)c2)n[nH]1", 99.5),
    ("S=c1[nH]nc(Cc2ccccc2)n1-c1ccccc1", 108),
    ("CCOC(=O)c1nnn(CC(=O)Nc2cccc(F)c2)c1C(=O)OCC", 112),
    ("CN(CC(=O)NCCC1=CCCCC1)S(=O)(=O)c1ccc2c(c1)CCC(=O)N2", 79),
    ("Cc1cc(NC(=O)CCC(=O)N(CCc2ccccc2)C(C(=O)NC2CCCC2)c2ccco2)no1 (centres undefined)", 85.5),
    ("C#CCN1C(=O)C(O)(CC(=O)c2cccc(OC)c2)c2ccccc21 (centres undefined)", 100),
    ("CCc1cccc2c(=O)c(C(=O)N3CCCCCC3)c[nH]c12", 104),
    ("CCc1cc(C)cc(OCCNC(=O)c2ncn[nH]2)c1", 117),
    ("O=C(Nc1ccon1)c1csc2c1CCCC2", 92.5),
    ("COc1ccc(CC(NC(C)=O)C(=O)NC2CCN(C(=O)Nc3ccc(C#N)cc3)CC2)cc1OC (centres undefined)", 93),
    ("Cc1cc(C)n(C2=NS(=O)(=O)c3ccccc32)n1", 86.5),
    ("Nn1c(SCc2csc(-c3ccccc3)n2)nnc1-c1cccs1", 83),
    ("CCc1nnc(NC(=O)CSc2nnc(-c3ccc(OC)cc3)n2C)s1", 87),
    ("Cn1c(=O)c2c(nc(SCCCC#N)n2Cc2ccccc2F)n(C)c1=O", 79.5),
    ("CN1C(=O)CSc2ccc(NC(=O)N3CCN(c4ccccn4)CC3)cc21", 102),
]
